Source listed as patent US20250002565A1.

- assaySystem: T1, 15-mer peptide LGIWGCSGKLICTTT (SEQ ID NO:1) (HIV, not fully specified; cysteine pairing not given here)
- T1 construct: also called U1731DB060-1; U173DB060-1
- T1 peptide: LGIWGCSGKLICTTT
- assayText: indirect ELISA; 15-mer peptide coated 1 ug/ml in DTT; antibody at 37 ng/ml
No end group written: not given here.
Items are presented alongside their recorded ELISA OD.
Please state the figure in OD; there is no need to write the unit.

# count of solved cases: 2
binder	valueObserved
HIV-binding peptide #8 (antibody, human IgG1, kappa, V domains shown, Recombinant, fully human immunoglobulin; also called U1205DB020-8) VH: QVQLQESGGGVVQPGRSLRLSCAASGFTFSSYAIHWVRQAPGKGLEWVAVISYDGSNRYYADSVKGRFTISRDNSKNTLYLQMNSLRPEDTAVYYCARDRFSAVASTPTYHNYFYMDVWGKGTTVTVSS VL: DIQMTQSPSSLSASVGDRVTITCQASQDISNYLAWYQQKPGQAPRLLIYDASNLETGVPSRFSGSGSGTDFTLTISSLQPEDLATYYCQQYDNLPYTFGQGTKLEIKR	0.089
HIV-binding peptide #7 (antibody, human IgG1, kappa, V domains shown, also called U1205DB020-7) VH: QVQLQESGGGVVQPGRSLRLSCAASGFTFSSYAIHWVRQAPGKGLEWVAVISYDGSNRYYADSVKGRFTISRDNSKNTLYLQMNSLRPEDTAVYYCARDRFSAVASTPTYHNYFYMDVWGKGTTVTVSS VL: DIQMTQSPSSLSASVGDRVTITCQASQDVSNYLAWYQQKPGQAPRLLIYDASNLETGVPSRFSGSGSGTDFTLTISSLQPEDLATYYCQQYDNLPYTFGQGTKLEIKR	0.098

Now, please, on to the next binder.
Given item HIV-binding peptide #1 (antibody, human IgG1, kappa, V domains shown, Recombinant, fully human immunoglobulin; also called U1205DB020-1) VH: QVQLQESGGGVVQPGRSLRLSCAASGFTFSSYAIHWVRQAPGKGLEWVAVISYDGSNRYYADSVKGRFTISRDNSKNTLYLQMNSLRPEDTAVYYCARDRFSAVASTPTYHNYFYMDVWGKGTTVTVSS VL: DIQMTQSPSSLSASVGDRVTITCQASQDVNNYLAWYQQKPGQAPRLLIYDASNLETGVPSRFSGSGSGTDFTLTISSLQPEDLATYYCQQYDNTPYTFGQGTKLEIKR , the value recorded as its ELISA OD is 0.098
